Target: Nuclear receptor subfamily 1 group I member 3 (Homo sapiens)
Test: qHTS for Constitutive Androstane Receptor (CAR) Antagonist screened against the NCATS CANVASS Library (AID 1347372);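 also: cells stimulated with 50 nM CITCO agonist so inhibition reflects antagonism; luciferase from CYP2B6 promoter reporter driven by hCAR in HepG2 cells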
Details: HepG2-hCAR-CYP2B6 luciferase, CITCO-stimulated antagonist mode; series mostly up to 46.1 µM
Records with an inconclusive call do not appear. Active and inactive are the calls of the source. Calls follow the shape of the dose curve; as a rule, active = well fitted inhibition curve with a large enough effect; inconclusive = small, poorly fitted or top-dose-only effect; inactive = no such curve, though single readings can be large or run the other way.
observable: outcome

mol_smiles	result_value
C[C@H](c1cnc(N)[nH]1)c1ccc(O)c2[nH]cc(-c3cnc(-c4c[nH]c5ccccc45)c(=O)[nH]3)c12	inactive
O=Cc1ccc2n1C[C@]1(OC2)O[C@H](CO)[C@@H](O)[C@@H]1O	inactive
C/C(=C\[C@@H](C)CC/C=C/CC/C=C/C(=O)O)[C@H](O)[C@H](C)C(=O)CCCC1CC(=O)NC(=O)C1	inactive
